Below: a set of entries, each annotated with reported IC50.
- TARGET_ENTITY: Recombinant human KIF18A (1-467 His-tagged) protein (Homo sapiens (Human), UniProt Q8NI77)
- Sequence (Q8NI77 1-467): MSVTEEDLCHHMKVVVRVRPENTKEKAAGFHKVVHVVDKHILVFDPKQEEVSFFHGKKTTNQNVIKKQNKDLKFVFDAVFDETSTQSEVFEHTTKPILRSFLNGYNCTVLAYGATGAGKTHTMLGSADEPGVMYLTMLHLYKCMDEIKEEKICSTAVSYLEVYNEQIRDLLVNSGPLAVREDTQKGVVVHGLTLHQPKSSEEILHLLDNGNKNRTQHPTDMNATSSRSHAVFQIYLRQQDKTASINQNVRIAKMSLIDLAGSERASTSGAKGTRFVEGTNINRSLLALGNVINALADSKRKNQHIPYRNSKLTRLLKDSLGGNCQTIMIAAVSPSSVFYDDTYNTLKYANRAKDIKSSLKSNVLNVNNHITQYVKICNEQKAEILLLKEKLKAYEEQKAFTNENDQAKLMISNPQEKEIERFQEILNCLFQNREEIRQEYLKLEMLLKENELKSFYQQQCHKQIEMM
- Sequence (P02550 whole entry partner): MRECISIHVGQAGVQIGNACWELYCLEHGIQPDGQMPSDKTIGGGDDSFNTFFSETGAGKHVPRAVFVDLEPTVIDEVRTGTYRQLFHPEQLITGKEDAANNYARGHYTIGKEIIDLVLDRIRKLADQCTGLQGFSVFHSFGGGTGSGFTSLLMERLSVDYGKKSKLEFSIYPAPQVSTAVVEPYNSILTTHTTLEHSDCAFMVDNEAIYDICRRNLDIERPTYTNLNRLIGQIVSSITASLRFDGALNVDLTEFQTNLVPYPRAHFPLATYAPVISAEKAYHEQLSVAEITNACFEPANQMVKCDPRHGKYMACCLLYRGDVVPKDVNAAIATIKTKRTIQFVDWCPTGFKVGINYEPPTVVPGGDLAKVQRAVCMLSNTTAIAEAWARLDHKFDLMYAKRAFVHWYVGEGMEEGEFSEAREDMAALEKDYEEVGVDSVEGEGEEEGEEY
- Sequence (P02554 whole entry partner): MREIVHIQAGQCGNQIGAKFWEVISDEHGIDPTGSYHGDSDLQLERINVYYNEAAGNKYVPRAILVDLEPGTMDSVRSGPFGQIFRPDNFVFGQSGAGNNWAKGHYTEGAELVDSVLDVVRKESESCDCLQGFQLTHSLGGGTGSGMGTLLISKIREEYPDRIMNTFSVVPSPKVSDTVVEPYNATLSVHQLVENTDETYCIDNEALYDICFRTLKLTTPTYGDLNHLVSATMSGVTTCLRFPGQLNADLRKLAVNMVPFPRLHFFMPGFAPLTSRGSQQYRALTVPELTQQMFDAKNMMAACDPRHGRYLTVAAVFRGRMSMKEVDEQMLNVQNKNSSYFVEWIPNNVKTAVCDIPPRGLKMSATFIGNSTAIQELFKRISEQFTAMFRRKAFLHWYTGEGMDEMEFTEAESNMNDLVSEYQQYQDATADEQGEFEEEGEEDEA
- ASSAY_REMARKS: KIF18A Enzyme Assay: microtubule-stimulated ATPase activity (ADP-Glo)
- CONDITION_NOTES: read-out: KIF18A ATPase IC50; 30 nM KIF18A, 30 μg/mL pig microtubules, ATP at Km 75 μM, ADP-Glo luminescence
The reply should read as a number followed by its unit.

COMPOUND	IC50
Cc1cc(NC(=O)c2ccc(S(=O)(=O)C(C)C)cc2N2CCC3(CC2)CC3)nc(N2CCC(F)(F)CC2)n1 [Example 14-3]	128 nM
Cc1cc(NC(=O)c2ccc(NS(=O)(=O)CCO)cc2N2CCC3(CC2)CC3)nc(C(C)C)n1 [Example 11-2]	27 nM
Cc1cc(NC(=O)c2ccc(NS(=O)(=O)C[C@H](C)O)cc2N2CCC3(CC2)CC3)nc(OCCC(F)(F)F)n1 [Example 6-28-2]	71 nM
O=C(Nc1ccnc(OCCC(F)(F)F)n1)c1ccc(S(=O)(=O)NCCO)cc1N1CCC2(CC1)CC2 [Example 17-1]	27 nM

Reported IC50, compound C[C@H](O)CS(=O)(=O)Nc1ccc(C(=O)Nc2ccnc(N3CCO[C@H](C)C3)n2)c(N2CCC3(CC2)CC3)c1 [Example 6-33-1] : ____
115 nM

Data credit: patent US11236069B2
